# Target of assay: LATS1 (Homo sapiens (Human), UniProt O95835)
# Sequence (O95835 whole entry, looked up): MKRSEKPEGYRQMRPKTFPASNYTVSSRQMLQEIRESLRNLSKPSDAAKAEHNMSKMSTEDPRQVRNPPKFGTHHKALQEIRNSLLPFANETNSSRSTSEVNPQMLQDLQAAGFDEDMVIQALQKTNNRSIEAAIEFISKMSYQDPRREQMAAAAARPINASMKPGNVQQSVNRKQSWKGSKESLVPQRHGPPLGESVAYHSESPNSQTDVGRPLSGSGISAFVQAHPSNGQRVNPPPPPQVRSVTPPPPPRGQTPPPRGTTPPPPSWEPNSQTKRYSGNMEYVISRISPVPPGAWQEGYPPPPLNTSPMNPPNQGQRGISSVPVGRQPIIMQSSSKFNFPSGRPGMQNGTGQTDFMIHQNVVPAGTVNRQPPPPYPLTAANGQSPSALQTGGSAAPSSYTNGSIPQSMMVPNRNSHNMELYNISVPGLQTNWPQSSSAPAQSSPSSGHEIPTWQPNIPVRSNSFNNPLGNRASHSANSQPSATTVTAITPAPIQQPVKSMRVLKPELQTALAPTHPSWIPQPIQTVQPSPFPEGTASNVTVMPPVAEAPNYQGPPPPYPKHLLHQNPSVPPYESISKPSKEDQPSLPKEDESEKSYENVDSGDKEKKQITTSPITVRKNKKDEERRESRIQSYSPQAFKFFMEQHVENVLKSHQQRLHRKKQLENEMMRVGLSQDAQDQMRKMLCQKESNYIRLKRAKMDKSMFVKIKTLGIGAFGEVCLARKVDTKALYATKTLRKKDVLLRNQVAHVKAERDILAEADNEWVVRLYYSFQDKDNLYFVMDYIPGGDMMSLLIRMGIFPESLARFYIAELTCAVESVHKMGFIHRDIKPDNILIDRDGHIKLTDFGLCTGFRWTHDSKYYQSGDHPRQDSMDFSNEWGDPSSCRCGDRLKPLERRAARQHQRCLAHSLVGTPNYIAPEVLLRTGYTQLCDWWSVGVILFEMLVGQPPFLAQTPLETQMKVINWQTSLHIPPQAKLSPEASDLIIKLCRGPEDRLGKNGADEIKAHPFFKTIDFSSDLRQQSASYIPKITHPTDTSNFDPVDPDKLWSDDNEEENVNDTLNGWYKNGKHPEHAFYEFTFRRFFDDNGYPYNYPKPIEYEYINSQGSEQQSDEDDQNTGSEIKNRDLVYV
# Sequence (Q7L9L4 whole entry partner, looked up): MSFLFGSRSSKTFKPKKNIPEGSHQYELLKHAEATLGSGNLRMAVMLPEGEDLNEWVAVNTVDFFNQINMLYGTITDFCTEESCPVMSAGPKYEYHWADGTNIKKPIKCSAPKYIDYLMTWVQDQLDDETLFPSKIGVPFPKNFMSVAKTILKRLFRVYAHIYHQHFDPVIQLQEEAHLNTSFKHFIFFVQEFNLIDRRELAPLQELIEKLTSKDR
# Measurement description: LATS1 biochemical assay (Table 1A, Compound Examples 1-290; method in the earlier part)
Parameter: IC50 (nM)
Numbers only, in nM.

Worked cases, answers included:
Compound: Cn1nccc1-c1nc(NC(C)(C)C)c2ccncc2n1
Units: nM
IC50: 4

Compound: CN(c1nc(-c2cn[nH]c2)nc2cnccc12)C1(C)CC1
Units: nM
IC50: 54

Can you give me IC50 for all of these, one by one?
1. C#CC(C)(C)Nc1nc(-c2ccncc2)nc2cnccc12
2. CC(CO)(Nc1nc(-c2ccncc2)nc2cnccc12)C(F)(F)F (stereo not drawn)
3. COC1CC(Nc2nc(-c3ccncc3)nc3cnccc23)C1 (stereo not drawn)
4. CC(C)(Nc1nc(-c2ccncc2F)nc2cnccc12)C(F)(F)F
5. CC(C)(O)COCC(C)(C)Nc1nc(-c2c[nH]nc2C(F)(F)F)nc2cnccc12
6. COc1ccc(Nc2nc(-c3ccncc3)nc3cnccc23)cc1

Marked response:
1. 3
2. 2
3. 12
4. 1
5. 14
6. 148

====

# Target of assay: Human LATS1 kinase domain protein (Homo sapiens (Human), UniProt O95835)
# Measurement description: LATS1 Biochemical Caliper Assay (Compound Examples 291-335)
# Settings: Caliper EZ Reader
Provide the recorded IC50 for the entries that follow.
Give bare numbers, in nM.

Structure as smiles: CCN(CC)CCC(C)(C)Nc1nc(-c2ccncc2)nc2cnccc12
Target of assay: Human LATS1 kinase domain protein (Homo sapiens (Human), UniProt O95835)
Measured: 3.1

Can you give me IC50 for all of these, one by one?
1. Cc1n[nH]cc1-c1nc(NC(C)(C)CCN(C)C)c2ccncc2n1
2. CN(C)C(C)(C)CNc1cc(-c2ccncc2)nc2cnccc12
3. CN(C)CCC(C)(C)Nc1nc(-c2ccncn2)nc2cnccc12
4. CCOC(=O)C(C)(C)Nc1nc(-c2ccncc2)nc2cnccc12

Marked response:
0.8
59.5
68.7
29.2

====

# Target of assay: Human LATS2 kinase domain protein (Homo sapiens (Human))
# Sequence (Q9NRM7 553-1088): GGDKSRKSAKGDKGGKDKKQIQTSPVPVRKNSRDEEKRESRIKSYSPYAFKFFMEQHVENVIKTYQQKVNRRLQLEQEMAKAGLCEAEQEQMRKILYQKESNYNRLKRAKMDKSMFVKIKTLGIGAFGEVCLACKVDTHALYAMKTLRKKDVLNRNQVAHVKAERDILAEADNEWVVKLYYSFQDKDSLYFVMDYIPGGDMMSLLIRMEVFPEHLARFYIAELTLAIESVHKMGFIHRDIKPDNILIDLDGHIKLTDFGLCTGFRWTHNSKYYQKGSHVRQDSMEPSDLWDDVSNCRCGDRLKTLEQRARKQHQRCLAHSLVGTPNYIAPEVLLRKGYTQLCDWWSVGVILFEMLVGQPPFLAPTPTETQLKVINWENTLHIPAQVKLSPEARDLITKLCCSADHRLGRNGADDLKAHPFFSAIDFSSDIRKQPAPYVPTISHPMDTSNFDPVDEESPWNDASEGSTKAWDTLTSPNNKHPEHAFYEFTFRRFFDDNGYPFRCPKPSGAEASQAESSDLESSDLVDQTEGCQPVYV
# Sequence (Q7L9L4 whole entry partner, the tested form may be a part): as the sequence (Q7L9L4 whole entry partner, looked up) above
Parameter: IC50 (nM)
Numbers only, in nM.

Worked cases, answers included:
Molecule: CC(C)(Nc1nc(-c2ccncc2Cl)nc2cnccc12)C(F)(F)F
IC50 / nM: 20
--
Molecule: Cc1n[nH]cc1-c1nc(NC2(C)CC2)c2ccncc2n1
IC50 / nM: 4
--
Molecule: CC(C)(C)Nc1cc(-c2ccncc2)nc2cnccc12
IC50 / nM: 4
--
Molecule: CC(C)(COCCO)Nc1nc(-c2ccncc2)nc2cnccc12
IC50 / nM: 12
--
Molecule: CCCNc1nc(-c2ccncc2)nc2cnccc12
IC50 / nM: 50
--
Molecule: CC(C)(O)COCC(C)(C)Nc1nc(-c2ccncc2)nc2cnccc12
IC50 / nM: 15
--
Molecule: CC(Nc1nc(-c2ccncc2)nc2cnccc12)C(F)(F)F (centres unmarked)
IC50 / nM: 1

For the next question, use this molecule.
Briefly, IC50 measured for `Cn1nccc1-c1nc(NC2(C)CCC2)c2ccncc2n1` : 50

====

# Target of assay: LATS1 (Homo sapiens (Human))
# Measurement description: LATS1 biochemical assay (Table 1A, Compound Examples 1-290; method in the earlier part)
pIC50: −log10 of the molar value.
Values of pIC50 greater than or equal to 8 map to condition met; values below map to condition not met.

Molecule: CC1(Nc2nc(-c3c(F)cncc3F)nc3cnccc23)CC1 [Example 147]
Group label: condition not met
--
Molecule: CC1(Nc2nc(-c3ccnc(C#N)c3)nc3cnccc23)CC1 [Example 151]
Group label: condition not met
--
Molecule: NCCCCNc1nc(-c2ccncc2)nc2cnccc12 [Example 106]
Group label: condition met

Exam item: Determine whether measured pIC50 meets or exceeds 8 for CC1(Nc2nc(-c3ccnc(N)c3)nc3cnccc23)CC1 [Example 138]
Marked response: condition met

Exam item: Determine whether measured pIC50 meets or exceeds 8 for CCCCN(C)c1nc(-c2ccncc2)nc2cnccc12 [Example 9]
Marked response: condition met

Exam item: Determine whether measured pIC50 meets or exceeds 8 for CC(C)CNc1nc(-c2ccncc2)nc2cnccc12 [Example 103]
Marked response: condition met

Exam item: Determine whether measured pIC50 meets or exceeds 8 for Cc1n[nH]c(C)c1-c1nc(NC(C)(C)CC(C)(C)O)c2ccncc2n1 [Example 160]
Marked response: condition not met

Exam item: Determine whether measured pIC50 meets or exceeds 8 for Cc1n[nH]cc1-c1cc(NC(C)(C)C)c2ccncc2n1 [Example 269]
Marked response: condition met

====

# Target of assay: LATS1 (Homo sapiens (Human), UniProt O95835)
# Measurement description: LATS1 biochemical assay (Table 1A, Compound Examples 1-290; method in the earlier part)
pIC50: −log10 of the molar value.
Values of pIC50 greater than or equal to 7 map to YES; values below map to NO.

Solved cases (10 shown):
Molecule: CC(C)(Nc1nc(-c2ccncc2)nc2cnccc12)C12CC3CC(CC(C3)C1)C2
Group label: NO
--
Molecule: CCC(CC)Nc1nc(-c2ccncc2)nc2cnccc12
Group label: YES
--
Molecule: CCN(CC)c1cc(-c2ccncc2Cl)nc2cnccc12
Group label: NO
--
Molecule: CC(CO)(CO)Nc1nc(-c2ccncc2)nc2cnccc12
Group label: YES
--
Molecule: CC(C)(C)Nc1cc(-c2ccnc(N)n2)nc2cnccc12
Group label: YES
--
Molecule: O=C(O)C1(Nc2nc(-c3ccncc3)nc3cnccc23)CCC1
Group label: NO
--
Molecule: CC(C)(O)COCC(C)(C)Nc1nc(-c2ccncc2)nc2cnccc12
Group label: YES
--
Molecule: OCC1(Nc2nc(-c3ccncc3)nc3cnccc23)CCC1
Group label: YES
--
Molecule: CC1(Nc2nc(-c3ccnnc3)nc3cnccc23)CC1
Group label: NO
--
Molecule: CC(C)(CCO)Nc1cc(-c2ccncc2)nc2cnccc12
Group label: NO

Next molecule, please.
Exam item: Determine whether measured pIC50 meets or exceeds 7 for FC(F)(F)C(Cc1ccccc1)Nc1nc(-c2ccncc2)nc2cnccc12 (centres unmarked)
Marked response: NO

====

# Target of assay: LATS1 (Homo sapiens (Human), UniProt O95835)
# Measurement description: LATS1 biochemical assay (Table 1A, Compound Examples 1-290; method in the earlier part)
Parameter: pIC50
Answers are plain numbers, as −log10 of the molar value.

Compound: OCCNc1nc(-c2ccncc2)nc2cnccc12
Target of assay: LATS1 (Homo sapiens (Human), UniProt O95835)
Measured: 7.60
--
Compound: OCC(CC(F)(F)F)Nc1nc(-c2ccncc2)nc2cnccc12 (stereo not shown)
Target of assay: LATS1 (Homo sapiens (Human), UniProt O95835)
Measured: 8.05
--
Compound: CC(C)(C)Nc1nc(-c2c[nH]nc2C(F)(F)F)nc2cnccc12
Target of assay: LATS1 (Homo sapiens (Human), UniProt O95835)
Measured: 8.70
--
Compound: OC1(CNc2nc(-c3ccncc3)nc3cnccc23)CCCC1
Target of assay: LATS1 (Homo sapiens (Human), UniProt O95835)
Measured: 7.52
--
Compound: CCCCCNc1nc(-c2ccncc2)nc2cnccc12
Target of assay: LATS1 (Homo sapiens (Human), UniProt O95835)
Measured: 8.05

Can you give me pIC50 for all of these, one by one?
1. CC1(Nc2nc(-c3ccncc3)nc3cnccc23)CCC1
2. CC(C)(O)C(C)(C)Nc1nc(-c2ccncc2)nc2cnccc12
3. CC(C)(O)COCC(C)(C)Nc1nc(-c2ccncc2Cl)nc2cnccc12
4. CC(C)(CC(=O)O)Nc1nc(-c2ccncc2)nc2cnccc12

Marked response:
1: 9.00; 2: 8.40; 3: 7.26; 4: 6.48

====

# Target of assay: LATS1 (Homo sapiens (Human), UniProt O95835)
# Measurement description: LATS1 biochemical assay (Table 1A, Compound Examples 1-290; method in the earlier part)
Provide the recorded pIC50 for the entries that follow.
Numbers only, as −log10 of the molar value.

Worked cases, answers included:
Molecule: Cc1n[nH]cc1-c1nc(NC(C)c2ccncc2)c2ccncc2n1 (centres unmarked)
pIC50: 7.00

Molecule: COC(=O)C(C)(C)Nc1nc(-c2ccncc2)nc2cnccc12
pIC50: 7.33

Molecule: CC(C)(C)Nc1nc(-c2ccncc2Cl)nc2cnccc12
pIC50: 8.52

Can you give me pIC50 for all of these, one by one?
1. CC1(Nc2nc(-c3ccncc3)nc3cncc(Cl)c23)CC1
2. Cc1c(-c2nc(NC(C)(C)C)c3ccncc3n2)c2cccnc2n1S(=O)(=O)c1ccccc1
3. COCC(C)(C)Nc1nc(-c2ccncc2Cl)nc2cnccc12
4. CCN(CC)c1nc(-c2ccncc2)nc2cnccc12
5. CC[C@H](C)Nc1cc(-c2ccncc2)nc2cnccc12
6. CN[C@@H]1CCCC[C@H]1N(C)c1nc(-c2ccncc2)nc2cnccc12
7. CC(C)N(C)c1nc(-c2ccncc2F)nc2cnccc12

Marked response:
1: 8.70; 2: 6.63; 3: 7.66; 4: 9.00; 5: 8.10; 6: 7.40; 7: 7.82

Can you give me pIC50 for all of these, one by one?
1. CC1(Nc2nc(-c3cn[nH]c3)nc3cnccc23)CC1
2. C[C@@H](N(C)c1nc(-c2ccncc2F)nc2cnccc12)C(F)(F)F

Marked response:
1. 8.30
2. 7.66
